Consider the following compounds; for each one, report its IC50.

Q) Short answer please: IC50, MK2 (Homo sapiens), entry `O=C(c1ccc(-c2ccc(Cl)c(O)c2)o1)N(Cc1ccccn1)c1ccc(N2CCNCC2)cc1`
A) > 5 µM

Q) Which measured IC50 belongs to `O=C(c1ccc(-c2ccc(Cl)cc2)o1)N(Cc1ccccn1)c1ccc(N2CCNCC2)c(O)c1` , tested on MK2 (Homo sapiens)?
A) > 5 µM

Q) Provide the documented IC50 with MK2 (Homo sapiens) as the system for O=C(c1ccc(-c2ccc(Cl)cc2)o1)N(Cc1ccccn1)c1ccc(N2CCNCC2)cc1 [compound 41, reference compound]
A) > 5 µM

====

- tested system: MK2 (Homo sapiens, UniProt P49137, DEL216-236/P237G)
- Sequence (P49137 with tags, fused parts or gaps DEL216-236/P237G): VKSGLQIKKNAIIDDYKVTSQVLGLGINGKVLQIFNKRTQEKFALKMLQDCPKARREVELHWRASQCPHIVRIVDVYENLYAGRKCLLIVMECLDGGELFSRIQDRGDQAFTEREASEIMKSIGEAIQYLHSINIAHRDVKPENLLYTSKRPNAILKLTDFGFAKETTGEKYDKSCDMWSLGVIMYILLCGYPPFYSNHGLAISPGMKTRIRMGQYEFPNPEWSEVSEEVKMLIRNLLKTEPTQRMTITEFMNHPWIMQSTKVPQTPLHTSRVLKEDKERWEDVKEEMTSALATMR
- assay summary: intact protein MS with MK2 (covalent modification)
- protocol conditions: 5-fold excess compound over MK2, rt, 3 h
property measured: covalent modification of MK2 (covalent binding) (%)
Entry rule: numbers only, all in %.

Q) What value of covalent modification of MK2 (covalent binding) has been reported for the following compound? `CC(C)(C)OC(=O)N1CCN(c2ccc(NC(=O)c3ccc(-c4ccc(Cl)cc4)o3)cc2S(=O)(=O)F)CC1`
A) 15

Q) Recorded covalent modification of MK2 (covalent binding) for `O=C(c1ccc(-c2ccc(Cl)c(OS(=O)(=O)F)c2)o1)N(Cc1ccccn1)c1ccc(N2CCNCC2)cc1` , please?
A) 95

Q) Any idea what its covalent modification of MK2 (covalent binding) is? The compound is `O=C(c1ccc(-c2ccc(Cl)cc2)o1)N(Cc1ccccn1)c1ccc(N2CCNCC2)c(S(=O)(=O)F)c1`
A) 15

====

- tested system: JAK3 (Homo sapiens)
- Sequence (P52333 1-1124): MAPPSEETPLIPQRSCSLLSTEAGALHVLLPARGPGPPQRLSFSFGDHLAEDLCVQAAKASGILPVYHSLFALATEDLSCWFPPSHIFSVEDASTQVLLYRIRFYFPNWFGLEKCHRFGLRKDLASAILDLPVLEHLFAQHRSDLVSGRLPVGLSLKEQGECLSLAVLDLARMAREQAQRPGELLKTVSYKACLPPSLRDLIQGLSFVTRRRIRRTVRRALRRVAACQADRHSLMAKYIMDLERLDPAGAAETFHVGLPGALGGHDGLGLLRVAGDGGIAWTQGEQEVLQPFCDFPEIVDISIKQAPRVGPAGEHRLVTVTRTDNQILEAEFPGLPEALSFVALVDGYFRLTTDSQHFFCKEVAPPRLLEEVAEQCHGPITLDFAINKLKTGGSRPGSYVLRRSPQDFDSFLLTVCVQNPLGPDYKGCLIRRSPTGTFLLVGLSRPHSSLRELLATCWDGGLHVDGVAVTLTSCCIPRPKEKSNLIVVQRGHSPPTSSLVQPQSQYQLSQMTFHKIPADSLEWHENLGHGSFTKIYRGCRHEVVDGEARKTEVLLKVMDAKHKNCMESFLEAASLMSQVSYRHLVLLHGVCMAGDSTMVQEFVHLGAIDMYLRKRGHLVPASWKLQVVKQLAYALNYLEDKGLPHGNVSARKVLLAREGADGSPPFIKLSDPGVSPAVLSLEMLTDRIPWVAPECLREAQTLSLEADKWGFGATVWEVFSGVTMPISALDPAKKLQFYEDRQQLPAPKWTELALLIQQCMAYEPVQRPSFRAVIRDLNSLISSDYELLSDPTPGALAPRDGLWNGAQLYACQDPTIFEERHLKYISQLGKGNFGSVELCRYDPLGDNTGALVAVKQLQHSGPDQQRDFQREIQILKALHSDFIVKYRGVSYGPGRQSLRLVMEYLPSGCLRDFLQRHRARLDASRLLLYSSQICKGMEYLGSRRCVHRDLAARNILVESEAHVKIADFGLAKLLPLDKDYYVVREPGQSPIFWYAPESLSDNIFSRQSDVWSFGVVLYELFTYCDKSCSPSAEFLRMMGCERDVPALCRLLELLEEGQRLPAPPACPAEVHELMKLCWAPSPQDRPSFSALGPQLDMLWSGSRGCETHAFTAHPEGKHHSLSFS
property measured: IC50 (nM)
Give the value, in units of nM, as a plain number.

Q) Report IC50 for `N#Cc1cccc(-c2cn(C3CCCCC3)c3c2cnc2[nH]ccc23)c1` tested on JAK3 (Homo sapiens).
A) 5.2
